Target: T1, Bfl-1, Q16548
T1 chain: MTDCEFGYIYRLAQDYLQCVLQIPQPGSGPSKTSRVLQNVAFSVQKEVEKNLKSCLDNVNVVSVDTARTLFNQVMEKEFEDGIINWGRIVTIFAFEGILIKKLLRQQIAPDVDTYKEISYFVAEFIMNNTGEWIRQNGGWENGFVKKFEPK
Assay: peptide SPOT array, c-Myc-tagged receptor at 1 uM or 100 nM, anti-c-Myc-Cy3
measured-quantity: SPOT signal as a fraction of Bim BH3's signal on the same receptor and array

- binder: "LFWTPLLVVLLAGLGDTEAQQTTLHP [SGCA]"
  observed: 0.04

A. HTALENCASLLCIRADELQEALTSHC [MYO3A]
B. RVCPYYLSRNDKQQADIIFMPYNYLL [RTEL1]
Prompt: // pick min by SPOT signal as a fraction of Bim BH3's signal on the same receptor and array: A , B The response must carry the label of the picked entry.
Response: A
(A: 0.03, B: 0.67)
